Values were extracted from ChEMBL document CHEMBL1128020.

Target: Glutamate NMDA receptor
Experiment: Binding affinity at the glycine binding site of the N-methyl-D-aspartate glutamate receptor in rat cortical membranes using [3H]dichlorokynurenate ([3H]DCKA) as radioligand
endpointName: IC50 (nM)
I only need the number, in nM, no unit after it.

Notebook: CCOC(=O)C1Nc2cc(Cl)cc(Cl)c2S(=O)(=O)N1Cc1cccc(C)c1 (stereo not given) , IC50 read as 14

Quick note, IC50 for CCOC(=O)C1Nc2cc(Cl)cc(Cl)c2S(=O)(=O)N1Cc1ccccc1Cl (stereo not given) landed at 48

// field: IC50; key: O=C(O)c1cc(O)c2c(Cl)cc(Cl)cc2n1 ; value = 46

Sure, the documented IC50 for CCOC(=O)C1Nc2cc(Cl)cc(Cl)c2S(=O)(=O)N1Cc1cccc(OC)c1 (stereo not given) is 12

Lab note: measured IC50 of O=C(O)C1Nc2cc(Cl)cc(Cl)c2S(=O)(=O)N1Cc1cccc(OC(F)(F)F)c1 (stereo not given) was 20

---

Field: IC50. Provide a value for each of the compounds that follow.
Target: Glutamate NMDA receptor
Assay: Binding affinity at the glycine binding site of the N-methyl-D-aspartate glutamate receptor in rat cortical membranes using [3H]dichlorokynurenate ([3H]DCKA) as radioligand
Value expressed in nM; do not type the unit.

The recorded IC50 for entry CCOC(=O)C1Nc2cc(Cl)cc(Cl)c2S(=O)(=O)N1Cc1ccccc1F (stereo not drawn) equals 26

The reported value for O=C(O)C1Nc2cc(Cl)cc(Cl)c2S(=O)(=O)N1CCCc1ccccc1 (stereo not drawn) in terms of IC50 is 33

compound CCOC(=O)C1Nc2cc(Cl)cc(Cl)c2S(=O)(=O)N1CCOc1ccccc1 (stereo not drawn) , IC50 observed: 41

---

Molecular target: Glutamate NMDA receptor
Experiment: Binding affinity at the glycine binding site of the N-methyl-D-aspartate glutamate receptor in rat cortical membranes using [3H]dichlorokynurenate ([3H]DCKA) as radioligand
endpointName: pIC50
Interpret pIC50 as the negative base-10 log of the concentration measured in mol/L.

So for O=C(O)C1Nc2cc(Cl)cc(Cl)c2S(=O)(=O)N1CCCCCc1ccccc1 (centres undefined) , the logged pIC50 turned out to be 7.44

Sure, the documented pIC50 for O=C(O)C1Nc2cc(Cl)cc(Cl)c2S(=O)(=O)N1CCc1ccccc1 (centres undefined) is 7.05

# compound COc1ccccc1CN1C(C(=O)O)Nc2cc(Cl)cc(Cl)c2S1(=O)=O (centres undefined) ; its pIC50 = 7.68

For reference, reported pIC50 for CCOC(=O)C1Nc2cc(Cl)cc(Cl)c2S(=O)(=O)N1Cc1ccc(Cl)cc1 (centres undefined) stands at 7.70

The compound O=C(O)C1Nc2cc(Cl)cc(Cl)c2S(=O)(=O)N1Cc1cccc(I)c1 (centres undefined) showed pIC50 equal to 8.10

Noted for O=C(O)C1Nc2cc(Cl)cc(Cl)c2S(=O)(=O)N1Cc1ccccc1C(F)(F)F (centres undefined) : its pIC50 reads 7.00

What the record says about O=C(O)CCc1c(C(=O)O)[nH]c2cc(Cl)cc(Cl)c12 : pIC50 is 7.30

Just so you know, measured pIC50 for CCOC(=O)C1Nc2cc(Cl)cc(Cl)c2S(=O)(=O)N1Cc1cccc(Cl)c1 (centres undefined) came out at 7.96

# pIC50 of CCOC(=O)C1Nc2cc(Cl)cc(Cl)c2S(=O)(=O)N1Cc1cccc([N+](=O)[O-])c1 (centres undefined) = 7.92

pIC50 for O=C(O)C1Nc2cc(Cl)cc(Cl)c2S(=O)(=O)N1Cc1cccc(F)c1 (centres undefined) is 7.89

Lab note: measured pIC50 of O=C(O)C1Nc2cc(Cl)cc(Cl)c2S(=O)(=O)N1Cc1cccc(Br)c1 (stereo in doubt; (+)8k) was 5.73

Measured pIC50, CCOC(=O)C1Nc2cc(Cl)cc(Cl)c2S(=O)(=O)N1Cc1ccc(C)cc1 (centres undefined) : 7.35

pIC50 for O=C(Nc1ccccc1)N[C@H]1C[C@H](C(=O)O)Nc2cc(Cl)cc(Cl)c21 (single isomer, unassigned) is 7.59

# compound O=C(O)CN1C(C(=O)O)Nc2cc(Cl)cc(Cl)c2S1(=O)=O (centres undefined) ; its pIC50 = 5.02
